target: NEIL1 (endonuclease VIII-like 1) (Homo sapiens, UniProt Q96FI4 2-390); assay: MST; MST: 50 mM Tris-HCl pH 7.5, 50 mM KCl, 1 mM EDTA, 1 mM DTT, 7% glycerol, 25 C, 10 min, 0.5 uM DNA; authors call Kd values estimates only; conditions: protein: recombinant; G-quadruplex
Sequence (Q96FI4 2-390): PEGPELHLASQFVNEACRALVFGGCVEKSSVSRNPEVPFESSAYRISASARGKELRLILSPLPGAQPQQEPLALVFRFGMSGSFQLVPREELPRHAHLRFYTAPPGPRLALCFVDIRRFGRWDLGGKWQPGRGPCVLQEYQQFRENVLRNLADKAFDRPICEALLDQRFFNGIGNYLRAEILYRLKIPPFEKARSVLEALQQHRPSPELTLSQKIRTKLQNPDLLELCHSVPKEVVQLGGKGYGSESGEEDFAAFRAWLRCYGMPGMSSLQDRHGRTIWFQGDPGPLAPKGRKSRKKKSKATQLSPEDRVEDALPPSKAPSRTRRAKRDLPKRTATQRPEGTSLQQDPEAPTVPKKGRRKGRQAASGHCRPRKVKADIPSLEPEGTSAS
measured.endpoint: Kd (µM)

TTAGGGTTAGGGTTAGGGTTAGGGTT (structured_DNA) [Q4] :: 3.4

Reference source: paper PMC7734321
